This collection of values is drawn from the supplement of paper PMC8728848.

Known glycan array binding signal (z-score) of a selection of binders
targetSystem: Fuc(a1-2)[GalNAc(a1-4)]Gal(b1-4)GlcNAc
protocol: glycan array binding signal (z-score within array); higher = stronger binding
protocolConditions: glycan notation: IUPAC condensed, linker removed
This is one part of a sample in which the strongest signals are shown more often than they occur.
Respond numerically, and do not add a unit to the figure.

INSERT INTO assay_data (binder, measure, result) VALUES
  ('R410P1E11 (Tachypleus tridentatus), TAL2_TACTR (protein) MEKGTPPTHDSDNWMGRAKEIGNGGWDQFQFLFFDPNGYLYAVSNDKLYKASPPQSDTDNWIARATEIGSGGWSGFKFLFFHPNGYLYAVRGQRFYKALPPVSNQD', 'glycan array binding signal (z-score)', 5.65),
  ('EUL D1A second (Oryza sativa) (protein) GAATACTIGGVPVHTVRVFSAAGEDYCLTVRNGTACLAPKNPRDDYQHWIKDMRHSNKIRDEEGYPAFALVNKVTGEAIKHSTGQGHPVKLVPYNPEYQDESVLWTESKDVGKGFRCIRMVNNIYLNFDAFHGDKDHGGIHDGTEIVLWKWCEGDNQRWKILPWILEQKLISEEDLNSAVDHHHHHH', 'glycan array binding signal (z-score)', 0.772),
  ('Gal 8 (Homo sapiens) (protein) MLSLNNLQNIIYNPVIPYVGTIPDQLDPGTLIVICGHVPSDADRFQVDLQNGSSVKPRADVAFHFNPRFKRAGCIVCNTLINEKWGREEITYDTPFKREKSFEIVIMVLKDKFQVAVNGKHTLLYGHRIGPEKIDTLGIYGKVNIHSIGFSFSSDLQSTQASSLELTEISRENVPKSGTPQLQTVSPSWDLQGHGSETFCSVLWTRVFLEIAFCRPIGLTVASFQSLPFAARLNTPMGPGRTVVVKGEVNANAKSFNVDLLAGKSKDIALHLNPRLNIKAFVRNSFLQESWGEEERNITSFPFSPGMYFEMIIYCDVREFKVAVNGVHSLEYKHRFKELSSIDTLEINGDIHLLEVRSW', 'glycan array binding signal (z-score)', -0.357),
  ('DC-ASGPR-short (Homo sapiens) (protein) MTRTYENFQYLENKVKVQGFKNGPLPLQSLLQRLRSGPCHLLLSLGLGLLLLVIICVVGFQNSKFQRDLVTLRTDFSNFTSNTVAEIQALTSQGSSLEETIASLKAEVEGFKQERQAVHSEMLLRVQQLVQDLKKLTCQVATLNNNASTEGTCCPVNWVEHQDSCYWFSHSGMSWAEAEKYCQLKNAHLVVINSREEQNFVQKYLGSAYTWMGLSDPEGAWKWVDGTDYATGFQNWKPGQPDDWQGHGLGGGEDCAHFHPDGRWNDDVCQRPYHWVCEAGLGQTSQESH', 'glycan array binding signal (z-score)', 3.1);

Let us move to another entry and its glycan array binding signal (z-score).
IN: Kindly indicate its recorded glycan array binding signal (z-score). Item: Morniga (Morus nigra) (protein) MAGTSTNTQTTGTSQTVEVGLWGGPGGNAWDDGSYTGIREINLSHGDAIGAFSVIYDLNGQPFTGPTHPGNEPSFKTVKITLDFPNEFLVSVSGYTGVLPRLATGKDVIRSLTFKTNKKTYGPYGKEEGTPFSLPIENGLIVGFKGRSGFVVDAIGVHLS
OUT: -0.34
